Test system: human colon carcinoma cells HCT 116
test: Calcein AM cytotoxicity assay, HCT 116
Type: cell-based
condition context: 72 h, means ± SD, three independent experiments in triplicate, read-out: IC50, HCT116
Measured pIC50 of individual entries
Remember the convention: pIC50 equals -log10 of concentration in molar.

| molecule | pIC50 |
| --- | --- |
| COc1ccc(C(=O)O[C@H]2[C@H](O[C@@H]3[C@@H](OC(C)=O)[C@H](O[C@H]4C[C@H]5[C@@H]6CC=C7C[C@@H](O)CC[C@]7(C)[C@H]6CC[C@]5(C)[C@@]4(O)[C@H](C)C(=O)CCC(C)C)OC[C@@H]3O)OC[C@@H](O)[C@@H]2O)cc1 [OSW-1, reference compound] | 5.08 |

Ask: Entry under review: `CCCCCCCCCCCCCC(=O)OC[C@@H](C)[C@@]1(O)[C@@H](O[C@@H]2OC[C@H](O)[C@H](O[C@@H]3OC[C@@H](O)[C@H](O)[C@H]3OC(=O)c3ccc(OC)cc3)[C@H]2OC(C)=O)C[C@H]2[C@@H]3CC=C4C[C@@H](O)CC[C@]4(C)[C@H]3CC[C@@]21C` . Reported pIC50?
Reply: 5.55

----------
Tested on: lung carcinoma cell line A549
test: Calcein AM cytotoxicity assay, A549
Assay type: cell-based, human
condition context: 72 h, means ± SD, three independent experiments in triplicate, read-out: IC50, A 549
Description: Stock solutions (10 mmol/l) of the tested compounds were prepared by dissolving relevant quantity of the substance in DMSO. […] Calcein AM was obtained from Molecular Probes (Invitrogen Corporation, CA, USA). All cell lines were cultured in DMEM medium (Sigma, Mo., USA). Medium was supplemented with 10% heat-inactivated fetal bovine serum, 2 mmol/l L-glutamine and 1% penicillin-streptomycin. […]
Measured IC50 of individual entries

| compound | IC50 |
| --- | --- |
| CCCCCCCCCCCCCCCCCC(=O)OC[C@@H](C)[C@@]1(O)[C@@H](O[C@@H]2OC[C@H](O)[C@H](O[C@@H]3OC[C@@H](O)[C@H](O)[C@H]3OC(=O)c3ccc(OC)cc3)[C@H]2OC(C)=O)C[C@H]2[C@@H]3CC=C4C[C@@H](O)CC[C@]4(C)[C@H]3CC[C@@]21C | 550 nM |

Ask: Entry under review: `CCCCCCC(=O)OC[C@@H](C)[C@@]1(O)[C@@H](O[C@@H]2OC[C@H](O)[C@H](O[C@@H]3OC[C@@H](O)[C@H](O)[C@H]3OC(=O)c3ccc(OC)cc3)[C@H]2OC(C)=O)C[C@H]2[C@@H]3CC=C4C[C@@H](O)CC[C@]4(C)[C@H]3CC[C@@]21C` . Reported IC50?
Reply: 20 nM

Ask: Same question, `COc1ccc(C(=O)O[C@H]2[C@H](O[C@@H]3[C@@H](OC(C)=O)[C@H](O[C@H]4C[C@H]5[C@@H]6CC=C7C[C@@H](O)CC[C@]7(C)[C@H]6CC[C@]5(C)[C@@]4(O)[C@H](C)COCc4ccccc4)OC[C@@H]3O)OC[C@@H](O)[C@@H]2O)cc1` this time
Reply: 100 nM

Ask: Same question, `CCCCCCCCCCCCCC(=O)OC[C@@H](C)[C@@]1(O)[C@@H](O[C@@H]2OC[C@H](O)[C@H](O[C@@H]3OC[C@@H](O)[C@H](O)[C@H]3OC(=O)c3ccc(OC)cc3)[C@H]2OC(C)=O)C[C@H]2[C@@H]3CC=C4C[C@@H](O)CC[C@]4(C)[C@H]3CC[C@@]21C` this time
Reply: 720 nM

Origin of measurements: patent US8552161B2
